# tested_on: JAK-2 enzyme (Homo sapiens, UniProt O60674)
# Sequence (O60674 whole entry, species assumed): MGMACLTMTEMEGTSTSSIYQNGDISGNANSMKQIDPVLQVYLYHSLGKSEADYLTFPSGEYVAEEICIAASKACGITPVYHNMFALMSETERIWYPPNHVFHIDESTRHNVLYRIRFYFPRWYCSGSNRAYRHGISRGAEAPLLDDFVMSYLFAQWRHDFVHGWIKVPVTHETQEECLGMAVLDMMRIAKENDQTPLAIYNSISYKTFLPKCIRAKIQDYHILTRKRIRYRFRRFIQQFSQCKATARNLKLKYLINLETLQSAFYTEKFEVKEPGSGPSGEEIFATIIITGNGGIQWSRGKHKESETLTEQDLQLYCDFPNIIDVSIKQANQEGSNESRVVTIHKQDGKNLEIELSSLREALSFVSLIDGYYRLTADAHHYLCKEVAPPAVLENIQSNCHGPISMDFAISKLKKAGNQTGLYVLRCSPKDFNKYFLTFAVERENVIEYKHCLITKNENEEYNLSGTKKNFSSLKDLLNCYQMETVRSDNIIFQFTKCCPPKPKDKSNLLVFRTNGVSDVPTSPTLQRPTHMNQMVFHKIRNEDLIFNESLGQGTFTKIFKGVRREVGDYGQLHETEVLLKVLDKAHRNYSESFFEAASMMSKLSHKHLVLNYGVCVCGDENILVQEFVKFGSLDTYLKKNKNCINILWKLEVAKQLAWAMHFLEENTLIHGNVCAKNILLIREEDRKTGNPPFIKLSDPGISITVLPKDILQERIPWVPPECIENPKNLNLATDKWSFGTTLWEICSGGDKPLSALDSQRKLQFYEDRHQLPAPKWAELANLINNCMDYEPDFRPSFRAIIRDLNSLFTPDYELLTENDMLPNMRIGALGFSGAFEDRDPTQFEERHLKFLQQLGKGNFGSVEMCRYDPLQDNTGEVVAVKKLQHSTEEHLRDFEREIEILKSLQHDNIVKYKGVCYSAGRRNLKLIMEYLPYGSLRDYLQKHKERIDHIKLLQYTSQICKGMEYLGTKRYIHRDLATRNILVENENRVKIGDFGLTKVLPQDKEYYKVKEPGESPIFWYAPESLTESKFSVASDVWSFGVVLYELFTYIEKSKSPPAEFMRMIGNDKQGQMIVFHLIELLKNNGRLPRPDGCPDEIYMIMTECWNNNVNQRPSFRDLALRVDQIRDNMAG
# run_description: JAK2 inhibition assay (radiometric 33P filter assay)
# Format: biochemical
# assay_setup: 15 μM poly(Glu)4Tyr, 12 μM ATP; read-out: JAK2 inhibition data (Ki)
# Protocol: Compounds were screened for their ability to inhibit JAK using the assay shown below. Reactions were carried out in a kinase buffer containing 100 mM HEPES (pH 7.4), 1 mM DTT, 10 mM MgCl2, 25 mM NaCl, and 0.01% BSA. […] To each well of a 96 well polycarbonate plate was added 1.5 μl of a candidate JAK3 inhibitor along with 50 μl of kinase buffer containing 2 μM poly(Glu)4Tyr and 10 μM ATP. […] After washing, 60 μl of scintillation fluid was added and ^33P incorporation detected on a Perkin Elmer TopCount. […]
pKi: −log10 of the molar value.
readout_type: pKi

Completed entries (count: 5):
- record_smiles: "CC(=O)N1[C@H](C)CN(c2cc(-n3nc(Nc4ccc(N5CCOCC5)cc4)nc3N)ccn2)C[C@@H]1C"
  pKi: "> 7.30"
- record_smiles: "CC(=O)N1[C@H](C)CN(c2cc(-n3nc(Nc4ccc(N5CCN(C(=O)Nc6c(F)cccc6F)CC5)cc4)nc3N)ncn2)C[C@@H]1C"
  pKi: "> 7.30"
- record_smiles: "CC(=O)N1[C@H](C)CN(c2cc(-n3nc(Nc4ccc(NC(=O)Nc5c(F)cccc5F)cc4)nc3N)ncn2)C[C@@H]1C"
  pKi: "> 7.30"
- record_smiles: "CCOC(=O)N1CCN(c2ccc(Nc3nc(N)n(-c4cc(N5CCCN(C(C)=O)CC5)ncn4)n3)cc2)CC1"
  pKi: "> 7.30"
- record_smiles: "CCOC(=O)N1CCN(c2ccc(Nc3nc(N)n(-c4cc(N5CCCN(S(C)(=O)=O)CC5)ncn4)n3)cc2)CC1"
  pKi: "6.30 to 7.30"

Switching to the query record.
"CCCOC(=O)N1CCN(c2ccc(Nc3nc(N)n(-c4ccnc(N5CCCN(C(=O)OCCC)CC5)c4)n3)cc2)CC1" on JAK-2 enzyme (Homo sapiens, UniProt O60674) gives pKi = 6.30 to 7.30

The values you see were collected from patent US7329652B2.
